meta.source: PubChem BioAssay

System: Inhibin beta A chain (activin A)
Test: INHBA (activin A) binders on microarrays, primary screen, biochemical, small-molecule microarray, 635 nm fluorescence scan (AID 1107);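 note: mouse activin A protein probed at 4.33 µg/mL on printed slides; score merges bound-protein fluorescence near 667 nm with spot signal-to-noise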
Conditions: small-molecule microarray binding, higher = more signal
Outcome label depends on composite z-score relative to 0.4: at/above gives 1, below gives -1.

CC1=C2[C@@H](CCc3ccccc3)OB(O)C[C@@H]2n2c(=O)n(-c3ccccc3)c(=O)n2C1 = 1
[N-]=[N+]=Nc1ccccc1[C@@H]1OC(c2ccc(OCCCO)cc2)=N[C@]1(CCS(=O)(=O)c1ccccc1)C(=O)N1CCOCC1 = 1
COC(=O)[C@@]1(Cc2ccc(OC)cc2)[C@H]2c3cc(C(=O)N(C)C)n(Cc4c(OC)[nH]cc(C)c4=O)c3C[C@H]2CN1C(=O)c1ccccc1 = 1

Q: Decide: is the reported value of composite z-score for `CCOC(=O)C[C@H]1[C@H](OC(=O)c2ccccc2-c2ccccc2)[C@@H](NC(=O)Cc2ccc(OC)cc2)c2cc(OCCCO)ccc2N1C(=O)c1ccccc1` equal to or greater than 0.4?
Result: -1

Q: Decide: is the reported value of composite z-score for `COCCOC(=O)N1C(=O)[C@@]2(c3cc(C#CCC(C(=O)OC)C(=O)OC)ccc31)[C@H](c1ccccc1OCCO)N1[C@H](c3ccccc3)[C@H](c3ccccc3)OC(=O)[C@H]1[C@@H]2C(=O)N1CCc2cc(OC)c(OC)cc2C1` equal to or greater than 0.4?
Result: 1

Q: Decide: is the reported value of composite z-score for `NCCCCCNC(=O)[C@H]1C[C@H]2C(=O)NCC(=O)N2[C@H]1c1cccc(OCCO)c1` equal to or greater than 0.4?
Result: -1
